List of GI50 values.
- System: DU145 (human prostate cancer cells)
- ASSAY INFO: MTT cancer cell growth inhibition
- Type: cell-based
- CONDITION: Homo sapiens, DU-145, 72 h, MTT, 72 hours incubation; read-out: GI50 Du1
Give the value, in units of nM, as a plain number.

Request: GI50, test system DU145 (human prostate cancer cells), entry C/C=C1\NC(=O)c2ccc(F)c(n2)CNC(=O)C[C@@H](/C=C/CCSC(=O)CCCCC)OC(=O)[C@H](C(C)C)NC1=O [Example 38]
30

And for C/C=C1\NC(=O)c2cccc(n2)CNC(=O)C[C@@H](/C=C/CCS)OC(=O)[C@H](CCCCNC(=O)OCC2c3ccccc3-c3ccccc32)NC1=O [Compound 119] ?
50

And for C/C=C1\NC(=O)c2nc(ccc2F)CNC(=O)C[C@@H](/C=C/CCS)OC(=O)[C@H](Cc2ccc(O)cc2)NC1=O [Compound 128] ?
50

---

- Tested on: K562 (human leukemia cells)
- ASSAY INFO: MTT cancer cell growth inhibition
- Format: cell-based
- CONDITION: MTT, 72 hours incubation, K562 cells; read-out: GI50 K562
// classify: if (GI50 < 40 nM) 1.0 else 0.0

Worked set:
Please indicate whether the reported GI50 of C/C=C1\NC(=O)c2nc(ccc2F)CNC(=O)C[C@@H](/C=C/CCSC(C)=O)OC(=O)[C@H](CC)NC1=O [Example 57] is strictly below 40 nM.
1.0

And for C/C=C1\NC(=O)c2ccc(SC)c(n2)CNC(=O)C[C@@H](/C=C/CCSC(C)=O)OC(=O)[C@H](C)NC1=O [Compound 215] ?
0.0

And for C/C=C1\NC(=O)c2ncc(SC)c(n2)CNC(=O)C[C@@H](/C=C/CCSC(C)=O)OC(=O)[C@H](C(C)C)NC1=O [Compound 217] ?
0.0

And for C=C1NC(=O)c2cc(F)cc(n2)CNC(=O)C[C@@H](/C=C/CCS)OC(=O)[C@H](C(C)C)NC1=O [Compound 132] ?
0.0

And for C/C=C1\NC(=O)c2cc(SC)cc(n2)CNC(=O)C[C@@H](/C=C/CCSC(C)=O)OC(=O)[C@H](C(C)C)NC1=O [Compound 224] ?
1.0

Next:
Please indicate whether the reported GI50 of C/C=C1\NC(=O)c2cc(SC)cc(n2)CNC(=O)C[C@@H](/C=C/CCSC(C)=O)OC(=O)[C@H](C)NC1=O [Compound 214] is strictly below 40 nM.
0.0

---

List of GI50 values.
- Tested on: H1975 (non-small cell lung adenocarcinoma)
- ASSAY INFO: MTT cancer cell growth inhibition
- Format: cell-based
- CONDITION: Homo sapiens, NCI-H1975, 72 h, MTT, 72 hours incubation, H1975 cells; read-out: GI50 H1975
Please provide the amount together with its unit, number first.

Solved cases (10 shown):
Entry under review: C/C=C1\NC(=O)c2ccc(SCCC)c(n2)CNC(=O)C[C@@H](/C=C/CCSC(=O)CCCCCCC)OC(=O)[C@H](CC)NC1=O [Compound 176] . Reported GI50?
31 nM

And for C/C=C1\NC(=O)c2cccc(n2)CNC(=O)C[C@@H](/C=C/CCSC(C)=O)OC(=O)[C@H](C(C)C)NC1=O [Compound 7] ?
34 nM

And for C/C=C1\NC(=O)c2cc(F)cc(n2)CNC(=O)C[C@@H](/C=C/CCS)OC(=O)[C@H](Cc2cccc3ccccc23)NC1=O [Compound 125] ?
36 nM

And for C/C=C1\NC(=O)c2cc(F)cc(n2)CNC(=O)C[C@@H](/C=C/CCSC(=O)CCCCCCC)OC(=O)[C@H](CC)NC1=O [Compound 55] ?
52 nM

And for C/C=C1\NC(=O)c2nc(ccc2F)CNC(=O)C[C@@H](/C=C/CCS)OC(=O)[C@H](CCCCNC(=O)OCC2c3ccccc3-c3ccccc32)NC1=O [Compound 120] ?
35 nM

And for C/C=C1\NC(=O)c2nc(ccc2SC)CNC(=O)C[C@@H](/C=C/CCSC(=O)CCCCCCC)OC(=O)[C@H](C)NC1=O [Compound 180] ?
97 nM

And for C/C=C1\NC(=O)c2cccc(n2)CNC(=O)C[C@@H](/C=C/CCS)OC(=O)[C@H](Cc2ccc(O)cc2)NC1=O [Compound 127] ?
36 nM

And for C/C=C1\NC(=O)c2nc(ccc2SC)CNC(=O)C[C@@H](/C=C/CCSC(=O)CCCC)OC(=O)[C@H](C(C)C)NC1=O [Compound 156] ?
18 nM

And for CC(=O)SCC/C=C/[C@@H]1CC(=O)NCc2ccc(F)c(n2)C(=O)NC(=C(C)C)C(=O)N[C@@H](C(C)C)C(=O)O1 [Compound 87] ?
42 nM

And for C/C=C1\NC(=O)c2cccc(n2)CNC(=O)C[C@@H](/C=C/CCSC(=O)CCCCCCC)OC(=O)[C@H](CSCC)NC1=O [Compound 242] ?
21 nM

Next:
Entry under review: C/C=C1\NC(=O)c2nc(ccc2SC)CNC(=O)C[C@@H](/C=C/CCSC(C)=O)OC(=O)[C@H](CCCCN)NC1=O [Compound 192] . Reported GI50?
35 nM

And for C/C=C1\NC(=O)c2cc(F)cc(n2)CNC(=O)C[C@@H](/C=C/CCSC(C)=O)OC(=O)[C@H](Cc2cccc3ccccc23)NC1=O [Example 79] ?
61 nM

And for C/C=C1\NC(=O)c2cccc(n2)CNC(=O)C[C@@H](/C=C/CCSC(C)=O)OC(=O)[C@H](Cc2ccc(O)cc2)NC1=O [Compound 18] ?
53 nM

---

- Test system: H1975 (non-small cell lung adenocarcinoma)
- ASSAY INFO: MTT cancer cell growth inhibition
- Assay type: cell-based
- CONDITION: Homo sapiens, NCI-H1975, 72 h, MTT, 72 hours incubation, H1975 cells; read-out: GI50 H1975
// classify: if (GI50 < 40 nM) Yes else No

Please indicate whether the reported GI50 of "C/C=C1\NC(=O)c2nc(ccc2SC)CNC(=O)C[C@@H](/C=C/CCS)OC(=O)[C@H](C)NC1=O" is strictly below 40 nM.
No

And for "C/C=C1\NC(=O)c2cc(F)cc(n2)CNC(=O)C[C@@H](/C=C/CCS)OC(=O)[C@H](Cc2ccc(O)cc2)NC1=O" ?
Yes

Next:
Please indicate whether the reported GI50 of "C/C=C1\NC(=O)c2cccc(n2)CNC(=O)C[C@@H](/C=C/CCSC(C)=O)OC(=O)[C@H](CCCCN)NC1=O" is strictly below 40 nM.
Yes

And for "C/C=C1\NC(=O)c2cc(SC)cc(n2)CNC(=O)C[C@@H](/C=C/CCSC(=O)CCCC)OC(=O)[C@H](C(C)C)NC1=O" ?
Yes

And for "C/C=C1\NC(=O)c2cccc(n2)CNC(=O)C[C@@H](/C=C/CCS)OC(=O)[C@H](CCCCNC(=O)OCC2c3ccccc3-c3ccccc32)NC1=O" ?
Yes

And for "CSc1ccc2nc1C(=O)NC(=C(C)C)C(=O)N[C@@H](C(C)C)C(=O)O[C@H](/C=C/CCSC(C)=O)CC(=O)NC2" ?
No

And for "C/C=C1\NC(=O)c2cccc(n2)CNC(=O)C[C@@H](/C=C/CCSC(=O)CCCCCCC)OC(=O)[C@H](C)NC1=O" ?
No

---

- Test system: SGC-7901 (human gastric cancer cells)
- ASSAY INFO: MTT cancer cell growth inhibition
- Format: cell-based
- CONDITION: Homo sapiens, SGC-7901, 72 h, MTT, 72 hours incubation, SGC-7901 cells; read-out: GI50 SGC-7901
List of GI50 values.
Give the value, in units of nM, as a plain number.

Solved cases (5 shown):
Entry under review: C/C=C1\NC(=O)c2cc(SC)cc(n2)CNC(=O)C[C@@H](/C=C/CCSC(=O)CCCCCCC)OC(=O)[C@H](CC)NC1=O [Compound 172] . Reported GI50?
31

And for C/C=C1\NC(=O)c2cc(F)cc(n2)CNC(=O)C[C@@H](/C=C/CCS)OC(=O)[C@H](CC)NC1=O [Compound 110] ?
57

And for C/C=C1\NC(=O)c2cccc(n2)CNC(=O)C[C@@H](/C=C/CCSC(=O)CCCCCCC)OC(=O)[C@H](c2ccc(O)cc2)NC1=O [Compound 238] ?
56

And for C/C=C1\NC(=O)c2cc(SC)cc(n2)CNC(=O)C[C@@H](/C=C/CCSC(=O)CCCCC)OC(=O)[C@H](C(C)C)NC1=O [Compound 154] ?
12

And for C/C=C1\NC(=O)c2cc(F)cc(n2)CNC(=O)C[C@@H](/C=C/CCS)OC(=O)[C@H](C)NC1=O [Compound 113] ?
95

Continue with the compound presented below.
Entry under review: C/C=C1\NC(=O)c2cc(F)cc(n2)CNC(=O)C[C@@H](/C=C/CCSC(C)=O)OC(=O)[C@H](Cc2cccc3ccccc23)NC1=O [Example 79] . Reported GI50?
51

Where these numbers come from: patent US10065990B2
